PROPERTY: melting point

Problem: # melting point lookup, item Cn1ccnc1Sc1ccc(Nc2c(C#N)cnc3ccc(-c4ccc(CN5CCOCC5)cn4)cc23)cc1Cl
Solution: 238 to 241 °C

Problem: # melting point lookup, item COc1cc(Nc2c(C#N)cnc3cc(C#CCN4CCOCC4)c(OC)cc23)c(Cl)cc1Cl
Solution: 105 to 108 °C

Problem: # melting point lookup, item Cn1ccnc1Sc1ccc(Nc2c(C#N)cnc3cc(-c4ccc(CN5CCOCC5)o4)ccc23)cc1Cl
Solution: 224 to 226 °C

Problem: # melting point lookup, item Cn1ccnc1Sc1ccc(Nc2c(C#N)cnc3cc(-c4cc(CN5CCOCC5)c(CN5CCOCC5)s4)ccc23)cc1Cl
Solution: 173 to 175 °C

Problem: # melting point lookup, item COc1ccc(-c2cc3ncc(C#N)c(Nc4ccc(Sc5nccn5C)c(Cl)c4)c3cc2OC)cc1
Solution: 227 to 229 °C

Problem: # melting point lookup, item COc1cc(Nc2c(C#N)cnc3cc(-c4cnc(CN5CCOCC5)n4C)ccc23)c(Cl)cc1Cl
Solution: 140 to 143 °C

Problem: # melting point lookup, item Cn1ccnc1Sc1ccc(Nc2c(C#N)cnc3cc(-c4ccc(N5CCOCC5)nc4)ccc23)cc1Cl
Solution: > 250 °C

Problem: # melting point lookup, item COc1cc(Nc2c(C#N)cnc3cc(-c4ccc(CN5CCOCC5)n4C)ccc23)c(Cl)cc1Cl
Solution: 208 to 210 °C

Problem: # melting point lookup, item COc1cc(Nc2c(C#N)cnc3cc(-c4csc(C5OCCO5)c4)ccc23)c(Cl)cc1Cl
Solution: 234 to 236 °C

Problem: # melting point lookup, item Cc1cc(Nc2c(C#N)cnc3cc(-c4csc(C5OCCO5)c4)ccc23)ccc1OCc1ccccn1
Solution: 194 to 196 °C

Problem: # melting point lookup, item CCN1CCN(Cc2ccnc(-c3ccc4c(Nc5ccc(Sc6nccn6C)c(Cl)c5)c(C#N)cnc4c3)c2)CC1
Solution: 150 to 153 °C

====

- MEASURED_ON: Rat2 fibroblasts stably transformed with v-Src/Hu c-Src fusion gene (Homo sapiens, UniProt P12931, cells depend on it, form not given)
- Sequence (P12931 whole entry, change not shown, the tested form may be a part): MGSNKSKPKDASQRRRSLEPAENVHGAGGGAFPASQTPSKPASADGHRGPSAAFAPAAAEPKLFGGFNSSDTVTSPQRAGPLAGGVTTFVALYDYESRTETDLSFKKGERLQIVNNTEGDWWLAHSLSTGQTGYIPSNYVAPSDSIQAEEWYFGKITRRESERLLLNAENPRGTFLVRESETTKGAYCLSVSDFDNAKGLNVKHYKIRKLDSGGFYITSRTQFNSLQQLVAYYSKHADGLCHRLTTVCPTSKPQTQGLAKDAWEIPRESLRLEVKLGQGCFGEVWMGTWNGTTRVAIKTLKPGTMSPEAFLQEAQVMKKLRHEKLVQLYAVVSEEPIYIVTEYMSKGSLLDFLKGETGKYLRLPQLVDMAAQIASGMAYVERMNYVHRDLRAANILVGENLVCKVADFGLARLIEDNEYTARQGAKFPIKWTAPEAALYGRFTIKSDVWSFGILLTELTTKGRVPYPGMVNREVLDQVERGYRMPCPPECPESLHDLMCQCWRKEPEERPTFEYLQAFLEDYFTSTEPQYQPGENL
- ASSAY_PROTOCOL: Anchorage Independent Src-transformed Fibroblast Proliferation Assay
- Assay type: cell-based, Rat
- MEASUREMENT_CONDITIONS: suspension growth, MTS reagent on Day 5; read-out: anch-indep src-tx fib IC50
PROPERTY: GI50

| STRUCTURE_STRING | GI50 |
| --- | --- |
| COc1cc(Nc2c(C#N)cnc3cc(-c4ccsc4CN4CCOCC4)ccc23)c(Cl)cc1Cl | > 10 µM |
| COc1cc(Nc2c(C#N)cnc3cc(-n4cccc4CN(C)C)ccc23)c(Cl)cc1Cl | > 10 µM |

Now consider the entry below.
Problem: # GI50 lookup, item COc1cc(Nc2c(C#N)cnc3cc(-c4ccc(CO)cc4)ccc23)c(Cl)cc1Cl
Solution: > 10 µM
